Give measured pIC50 for each item. Keep answers brief.
biological target: human CB2 receptor (Homo sapiens, UniProt P34972); construct: host or cells: CHO-K1 (stably transfected cell line, membranes prepared in house); experiment: CB2 radioligand competitive binding assay ([3H]CP 55,940 displacement); details: 0.6 nM [3H]CP 55,940; membranes from CHO-K1 cells expressing human CB2 receptor; dose-response; read-out: CB2 IC50
Sequence (P34972 whole entry): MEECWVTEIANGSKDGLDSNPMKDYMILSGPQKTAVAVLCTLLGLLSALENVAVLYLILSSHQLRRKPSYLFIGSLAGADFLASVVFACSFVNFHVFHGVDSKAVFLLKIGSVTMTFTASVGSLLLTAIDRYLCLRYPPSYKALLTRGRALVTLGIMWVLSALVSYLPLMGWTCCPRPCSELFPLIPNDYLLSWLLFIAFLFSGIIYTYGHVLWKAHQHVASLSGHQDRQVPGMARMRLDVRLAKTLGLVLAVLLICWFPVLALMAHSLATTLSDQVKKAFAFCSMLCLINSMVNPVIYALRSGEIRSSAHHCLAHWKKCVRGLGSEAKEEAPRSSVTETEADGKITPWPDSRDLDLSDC
pIC50: −log10 of the molar value.

The measured pIC50 associated with CCCCCc1cc(O)c(CC=C(C)CCC=C(C)C)c(OCOC(=O)OCC)c1 reads > 6.30

The measured pIC50 associated with CCCCCCC(C)(C)c1cc(O)c(CC=C(C)CCC=C(C)C)c(OCOC(=O)C(C)(C)C)c1 reads > 6.30

The measured pIC50 associated with CCCCCc1cc(O)c(C/C=C(\C)CCC=C(C)C)c(OCN(C(=O)OC)c2ccccc2)c1 reads > 6.30

The measured pIC50 associated with CCCc1cc(O)c(C/C=C(\C)CCC=C(C)C)c(OCOC(=O)OCC)c1 reads 5.30 to 6.00

* * *

Molecular target: human CB2 receptor (Homo sapiens, UniProt P34972)
Construct: host or cells: CHO-K1 (stably transfected cell line, membranes prepared in house)
Assay: CB2 radioligand competitive binding assay ([3H]CP 55,940 displacement)
Conditions: fold difference between CB1 and CB2 binding, printed in the column of the receptor with higher affinity; 1.00 in both = about the same affinity
Description: Compounds of the present disclosure were tested for CB1 receptor binding affinity and for CB2 receptor binding affinity. As used herein, “binding affinity” is represented by the IC50 value, which was experimentally determined as described herein. The lower the IC50 value the higher the binding affinity. A compound of the present disclosure may be said to have “binding selectivity” if it has a higher binding affinity for one receptor compared to the other. […]
Give measured Selectivity CB2 for each item. Keep answers brief.
# number only, unit fold dropped from output

The measured Selectivity CB2 associated with CCCCCc1cc(O)c(C/C=C(\C)CCC=C(C)C)c(OCN(C(=O)OC)c2ccccc2)c1 reads 1.37

The measured Selectivity CB2 associated with CCCc1cc(O)c(C/C=C(\C)CCC=C(C)C)c(OCOC(=O)C(C)(C)C)c1 reads 3.89

The measured Selectivity CB2 associated with CCCc1cc(O)c(C/C=C(\C)CCC=C(C)C)c(OCOC(=O)OCC)c1 reads 1.80

The measured Selectivity CB2 associated with CCCCCc1cc(O)c(C/C=C(\C)CCC=C(C)C)c(OCOCC)c1 reads 2.83

The measured Selectivity CB2 associated with CCCCCc1cc(O)c(C/C=C(\C)CCC=C(C)C)c(OCOCCOC)c1 reads 4.00

* * *

Target: human CB2 receptor (Homo sapiens)
Construct: host or cells: CHO-K1 (stably transfected cell line, membranes prepared in house)
Assay: CB2 radioligand competitive binding assay ([3H]CP 55,940 displacement)
Experimental: Compounds of the present disclosure were tested for CB1 receptor binding affinity and for CB2 receptor binding affinity. As used herein, “binding affinity” is represented by the IC50 value, which was experimentally determined as described herein. The lower the IC50 value the higher the binding affinity. A compound of the present disclosure may be said to have “binding selectivity” if it has a higher binding affinity for one receptor compared to the other. […]
Readout type: IC50

The measured IC50 associated with CCCCCc1cc(O)c(C/C=C(\C)CCC=C(C)C)c(OCOCCOC)c1 reads 1000 to 4990 nM

The measured IC50 associated with CCCCCCC(C)(C)c1cc(O)c(C/C=C(\C)CCC=C(C)C)c(OCOC(=O)OCC)c1 reads < 500 nM

* * *

target: human CB2 receptor (Homo sapiens); construct: host or cells: CHO-K1 (stably transfected cell line, membranes prepared in house); test: CB2 radioligand competitive binding assay ([3H]CP 55,940 displacement); conditions: fold difference between CB1 and CB2 binding, printed in the column of the receptor with higher affinity; 1.00 in both = about the same affinity
Label scheme for Selectivity CB2: lower than 20 fold is N, 20 fold and above is Y.

## Input Exam item: decide whether the reported Selectivity CB2 for CCCCCc1cc(OCOC(=O)C(C)(C)C)c(CC=C(C)CCC=C(C)C)c(OCOC(=O)C(C)(C)C)c1 is at least 20 fold.
## Output N

## Input Exam item: decide whether the reported Selectivity CB2 for CCCCCc1cc(OCOC(=O)OCC)c(CC=C(C)CCC=C(C)C)c(OCOC(=O)OCC)c1 is at least 20 fold.
## Output Y

## Input Exam item: decide whether the reported Selectivity CB2 for CCCCCc1cc(O)c(CC=C(C)CCC=C(C)C)c(OCOC(=O)C(C)(C)C)c1 is at least 20 fold.
## Output N

## Input Exam item: decide whether the reported Selectivity CB2 for CCCCCCC(C)(C)c1cc(O)c(CC=C(C)CCC=C(C)C)c(OCOC(=O)C(C)(C)C)c1 is at least 20 fold.
## Output N

## Input Exam item: decide whether the reported Selectivity CB2 for CCCCCc1cc(O)c(CC=C(C)CCC=C(C)C)c(OCOC(=O)OCC)c1 is at least 20 fold.
## Output N

## Input Exam item: decide whether the reported Selectivity CB2 for CCCCCc1cc(OCOC2CCCCC2)c(CC=C(C)CCC=C(C)C)c(OCOC2CCCCC2)c1 is at least 20 fold.
## Output N

## Input Exam item: decide whether the reported Selectivity CB2 for CCCCCCC(C)(C)c1cc(OCOC(=O)C(C)(C)C)c(CC=C(C)CCC=C(C)C)c(OCOC(=O)C(C)(C)C)c1 is at least 20 fold.
## Output N

## Input Exam item: decide whether the reported Selectivity CB2 for CCCCCCC(C)(C)c1cc(O)c(C/C=C(\C)CCC=C(C)C)c(OCOC(=O)OCC)c1 is at least 20 fold.
## Output N

## Input Exam item: decide whether the reported Selectivity CB2 for CCCCCc1cc(O)c(CC=C(C)CCC=C(C)C)c(OCOC2CCCCC2)c1 is at least 20 fold.
## Output Y

* * *

Molecular target: human CB2 receptor (Homo sapiens, UniProt P34972)
Construct: host or cells: CHO-K1 (stably transfected cell line, membranes prepared in house)
Assay: CB2 radioligand competitive binding assay ([3H]CP 55,940 displacement)
Conditions: 0.6 nM [3H]CP 55,940; membranes from CHO-K1 cells expressing human CB2 receptor; dose-response; read-out: CB2 IC50
Procedure: Compounds of the present disclosure were tested for CB1 receptor binding affinity and for CB2 receptor binding affinity. As used herein, “binding affinity” is represented by the IC50 value, which was experimentally determined as described herein. The lower the IC50 value the higher the binding affinity. A compound of the present disclosure may be said to have “binding selectivity” if it has a higher binding affinity for one receptor compared to the other. […]
Readout type: IC50

The measured IC50 associated with CCCc1cc(O)c(C/C=C(\C)CCC=C(C)C)c(OCOC(=O)C(C)(C)C)c1 reads < 500 nM

The measured IC50 associated with CCCCCc1cc(O)c(CC=C(C)CCC=C(C)C)c(OCOC(=O)C(C)(C)C)c1 reads < 500 nM

The measured IC50 associated with CCCCCc1cc(O)c(C/C=C(\C)CCC=C(C)C)c(OCOCC)c1 reads 1000 to 4990 nM

The measured IC50 associated with CCCCCc1cc(OCOC(=O)OCC)c(CC=C(C)CCC=C(C)C)c(OCOC(=O)OCC)c1 reads 500 to 990 nM

The measured IC50 associated with CCCCCc1cc(OCOC(=O)C(C)(C)C)c(CC=C(C)CCC=C(C)C)c(OCOC(=O)C(C)(C)C)c1 reads > 5000 nM

The measured IC50 associated with CCCCCCC(C)(C)c1cc(OCOC(=O)C(C)(C)C)c(CC=C(C)CCC=C(C)C)c(OCOC(=O)C(C)(C)C)c1 reads 1000 to 4990 nM

The measured IC50 associated with CCCCCc1cc(O)c(CC=C(C)CCC=C(C)C)c(OCOC2CCCCC2)c1 reads < 500 nM

The measured IC50 associated with CCCCCc1cc(OCOC2CCCCC2)c(CC=C(C)CCC=C(C)C)c(OCOC2CCCCC2)c1 reads > 5000 nM
